assay: Hematology assays in cynomolgus monkeys (Example 45); assay type: in vivo; details: day −14
Measure: lymphocytes (%)
Give the quantity in %, number only.

Please review the following examples before continuing.
Substance: ISIS 416850: MOE gapmer, nucleobases 1275 to 1318 of SEQ ID NO: 1 (Table 8) (antisense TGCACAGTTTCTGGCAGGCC; MOE gapmer, wing and gap sizes not given here)
lymphocytes, %: 47
//
Substance: ISIS 416864: MOE gapmer, nucleobases 1275 to 1318 of SEQ ID NO: 1 (Table 8) (antisense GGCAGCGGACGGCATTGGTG; MOE gapmer, wing and gap sizes not given here)
lymphocytes, %: 42

Query :: Name the recorded lymphocytes of the substance listed here: ISIS 416838: MOE gapmer, nucleobases 1018 to 1042 of SEQ ID NO: 1 (Table 6) (antisense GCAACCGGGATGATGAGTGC; MOE gapmer, wing and gap sizes not given here)
Result :: 59

====

Recorded percent inhibition of Factor 11 mRNA relative to untreated control cells, one value per entry.
tested on: human Factor 11 mRNA; assay: Dose-dependent inhibition of human Factor 11 in HepB3 cells, lipofectin (Example 7); assay type: cell-based; conditions: 75 nM, ~16 hours
Give the quantity in %, number only.

Substance: 416838 (antisense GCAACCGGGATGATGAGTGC; 5-10-5 gapmer, further chemistry not given here) [compound 416838]
Target Or System: human Factor 11 mRNA
Experimental Result: 56
--
Substance: 417002 (antisense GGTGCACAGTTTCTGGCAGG; 2-13-5 gapmer chemistry, further chemistry not given here) [compound 417002]
Target Or System: human Factor 11 mRNA
Experimental Result: 65
--
Substance: 416999 (antisense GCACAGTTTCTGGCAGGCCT; 2-13-5 gapmer chemistry, further chemistry not given here) [compound 416999]
Target Or System: human Factor 11 mRNA
Experimental Result: 59
--
Substance: 416925 (antisense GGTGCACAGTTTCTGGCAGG; 3-14-3 gapmer chemistry, further chemistry not given here) [compound 416925]
Target Or System: human Factor 11 mRNA
Experimental Result: 60

Query :: Name the recorded percent inhibition of Factor 11 mRNA relative to untreated control cells of the substance listed here: 416864 (antisense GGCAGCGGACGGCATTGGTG; 5-10-5 gapmer, further chemistry not given here) [compound 416864]
Result :: 63

Query :: Name the recorded percent inhibition of Factor 11 mRNA relative to untreated control cells of the substance listed here: 416892 (antisense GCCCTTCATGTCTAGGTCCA; 3-14-3 chimeric gapmer, further chemistry not given here) [compound 416892]
Result :: 72

Query :: Name the recorded percent inhibition of Factor 11 mRNA relative to untreated control cells of the substance listed here: 416825 (antisense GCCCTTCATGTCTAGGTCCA; 5-10-5 gapmer, further chemistry not given here) [compound 416825]
Result :: 59

Query :: Name the recorded percent inhibition of Factor 11 mRNA relative to untreated control cells of the substance listed here: 416850 (antisense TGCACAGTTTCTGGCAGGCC; 5-10-5 gapmer, further chemistry not given here) [compound 416850]
Result :: 60

====

Recorded hemoglobin, one value per entry.
assay: Tolerability in Sprague-Dawley rats: hematology assays (Example 44); format: in vivo; conditions: 50 mg/kg s.c. twice per week for 6 weeks, blood
Strand notation (5' to 3'): a small letter for the sugar, then the base; units joined by * are phosphorothioate-linked, units joined directly phosphodiester-linked; [ ] holds rarer units or linkages, { } end groups; capitals alone tell only the bases. e = 2'-O-(2-methoxyethyl) (MOE); [5mC] = 5-methylcytosine; d = 2'-deoxy (DNA)
Give the quantity in g/dL, number only.

Query :: Name the recorded hemoglobin of the substance listed here: ISIS 449709: 3-8-3, 4-8-4, 2-10-2, 3-10-3 or 4-10-4 MOE microwalk gapmer (Table 46) (antisense eG*e[5mC]*eA*e[5mC]*dA*dG*dT*dT*dT*d[5mC]*dT*dG*dG*d[5mC]*eA*eG*eG*e[5mC])
Result :: 12.6

Query :: Name the recorded hemoglobin of the substance listed here: ISIS 449708: 3-8-3, 4-8-4, 2-10-2, 3-10-3 or 4-10-4 MOE microwalk gapmer (Table 46) (antisense eA*e[5mC]*eA*dG*dT*dT*dT*d[5mC]*dT*dG*dG*e[5mC]*eA*eG)
Result :: 12.2

Query :: Name the recorded hemoglobin of the substance listed here: ISIS 449707: 3-8-3, 4-8-4, 2-10-2, 3-10-3 or 4-10-4 MOE microwalk gapmer (Table 46) (antisense e[5mC]*eA*e[5mC]*eA*dG*dT*dT*dT*d[5mC]*dT*dG*dG*e[5mC]*eA*eG*eG)
Result :: 12.0

Query :: Name the recorded hemoglobin of the substance listed here: ISIS 449711: 3-8-3, 4-8-4, 2-10-2, 3-10-3 or 4-10-4 MOE microwalk gapmer (Table 46) (antisense eA*e[5mC]*dA*dG*dT*dT*dT*d[5mC]*dT*dG*dG*d[5mC]*eA*eG)
Result :: 12.6

Query :: Name the recorded hemoglobin of the substance listed here: ISIS 449710: 3-8-3, 4-8-4, 2-10-2, 3-10-3 or 4-10-4 MOE microwalk gapmer (Table 46) (antisense e[5mC]*eA*e[5mC]*dA*dG*dT*dT*dT*d[5mC]*dT*dG*dG*d[5mC]*eA*eG*eG)
Result :: 12.5

Data provenance is patent US20230263822A1.
